Entry source: patent US8546376B2

- MEASUREMENT TARGET: AKT3 (Homo sapiens, UniProt Q9Y243)
- Sequence (Q9Y243 whole entry): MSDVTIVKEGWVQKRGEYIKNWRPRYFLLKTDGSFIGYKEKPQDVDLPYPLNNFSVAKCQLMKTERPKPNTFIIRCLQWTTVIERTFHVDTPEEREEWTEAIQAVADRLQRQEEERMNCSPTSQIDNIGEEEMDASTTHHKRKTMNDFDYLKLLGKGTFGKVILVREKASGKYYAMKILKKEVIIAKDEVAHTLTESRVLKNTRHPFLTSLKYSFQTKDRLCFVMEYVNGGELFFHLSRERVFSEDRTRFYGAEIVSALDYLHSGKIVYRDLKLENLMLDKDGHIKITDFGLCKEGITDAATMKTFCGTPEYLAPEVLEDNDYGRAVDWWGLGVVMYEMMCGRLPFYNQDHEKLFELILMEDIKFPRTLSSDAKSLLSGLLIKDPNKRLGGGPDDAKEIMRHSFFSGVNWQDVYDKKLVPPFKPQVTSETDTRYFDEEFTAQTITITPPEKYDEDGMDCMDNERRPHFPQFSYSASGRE
- METHOD NOTES: AKT Kinase Assay (IMAP fluorescent polarisation) vs AKT3
- RUN PARAMETERS: activated AKT3, FAM Crosstide substrate
pIC50: −log10 of the molar value. Counter-ions that a name gives are not always drawn.
Measured pIC50 by item

The value of pIC50 measured for the compound NC1(c2ccc(-c3c(-c4ccccc4)oc4c(OC(F)F)nccc4c3=O)cc2)CCC1 [Example 32] turned out to be 5.00 to 6.00

The value of pIC50 measured for the compound Cc1nc2ccc3c(=O)c(-c4ccc(C5(N)CCC5)cc4)c(-c4ccccc4)oc3c2n1C [Example 90] turned out to be ≥ 6.00

The value of pIC50 measured for the compound Cn1ccc2c(=O)c(-c3ccc(C4(N)CCC4)cc3)c(-c3ccccc3)oc2c1=O [Example 41, hydrochloride] turned out to be < 5.00

The value of pIC50 measured for the compound NC1(c2ccc(-c3c(-c4ccccc4)oc4cc(-c5ccn[nH]5)ccc4c3=O)cc2)CCC1 [Example 17] turned out to be < 5.00

The value of pIC50 measured for the compound N#CCn1ncc2ccc3c(=O)c(-c4ccc(C5(N)CCC5)cc4)c(-c4ccccc4)oc3c21 [Example 111] turned out to be 5.00 to 6.00

New cases:
The value of pIC50 measured for the compound NC1(c2ccc(-c3c(-c4ccccc4)oc4c(C5CC5)cccc4c3=O)cc2)CCC1 [Example 54, hydrochloride] turned out to be 5.00 to 6.00

The value of pIC50 measured for the compound N#Cc1nccc2c(=O)c(-c3ccc(C4(N)CCC4)cc3)c(-c3ccccc3)oc12 [Example 127] turned out to be < 5.00

The value of pIC50 measured for the compound NC1(c2ccc(-c3c(-c4ccccc4)oc4c(-c5cccnc5)nccc4c3=O)cc2)CCC1 [Example 123, hydrochloride] turned out to be 5.00 to 6.00
